Tested on: MAP3K4
Settings: concentration: 1 μM, replicates: in singlicate; n = 1;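 further: KINOMEscan kinase panel screen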
Parameter %Inh: see the listing below.
All answers are understood in %, so give the number only.

Completed entries (count: 3):
Cc1ccc(O)cc1Nc1ccnc2cc(-c3ccc(CN4CCCCC4)o3)ccc12 [GW557777] :: 0
COc1cc(Nc2ccnc3cc(-c4ccncc4)ccc23)cc(OC)c1OC.Cl [GW494610] :: 0
Cn1cc(-c2ccc3c(c2)CCN3C(=O)Cc2cc(F)cc(C(F)(F)F)c2)c2c(N)ncnc21 [GSK2635225] :: 41

Ask | Return the recorded %Inh value; entry: Nc1ncnc2scc(-c3ccc(NC(=O)Cc4cc(F)ccc4F)cc3)c12.O=C(O)C(F)(F)F [SB-731254-M]
Reply | 22

Ask | Return the recorded %Inh value; entry: Fc1cc(Cl)ccc1Nc1ccnc2cc(-c3ccc(CN4CCSCC4)o3)ccc12 [GW560106]
Reply | 0

Ask | Return the recorded %Inh value; entry: Cc1ccc(C)c(NC(=O)Nc2ccc(C)c(-c3ccc(C(=O)Nc4ccncc4)cc3)c2)c1 [GSK1398473]
Reply | 43

Ask | Return the recorded %Inh value; entry: c1ccc(Oc2ccc(Nc3ccnc4cc(-c5ccc(CN6CCCCC6)o5)ccc34)cc2)nc1 [GW567143]
Reply | 0

Ask | Return the recorded %Inh value; entry: Cn1cc(-c2ccc3c(c2)CCN3C(=O)Cc2cc(F)cc(F)c2F)c2c(N)ncnc21 [GSK2634140]
Reply | 80

---

System: EPHA6
Conditions: concentration: 1 μM, replicates: in singlicate; n = 1
reported.endpoint: %Inh (%)
All answers are understood in %, so give the number only.

Completed entries (count: 4):
CSc1ccc(NC2=C(c3ccc(Cl)cc3)C(=O)NC2=O)cc1 :: 26
COc1cccc(-c2nc(-c3ccccc3)[nH]c2-c2ccncc2)c1 :: 9
Cc1cccc(Nc2nc(N[C@H]3CCCC[C@H]3N)ncc2C(N)=O)c1.Cl :: 6
c1ccc(Oc2ccc(Nc3ccnc4cc(-c5ccc(CN6CCCCC6)o5)ccc34)cc2)nc1 :: 0

# context switch: different molecule, same %Inh
Ask | Please respond with reported %Inh (system EPHA6) for Cc1ccc(-c2ccc3occ(-c4ccc(S(C)=O)cc4)c3c2)nn1 (centres unmarked) .
Reply | 21

---

Parameter %Inh: see the listing below.
Tested on: RIPK5
Settings: concentration: 1 μM, replicates: in singlicate; n = 1
All answers are understood in %, so give the number only.

Completed entries (count: 8):
COc1cccc2c(-c3ccncc3)c(-c3ccc(F)cc3)nn12 :: 0
CCNC(=O)/C=C/c1n[nH]c2cc(Sc3ccccc3C(=O)NC)ccc12 :: 18
Nc1cccc(-c2ccc3c(N)n[nH]c3c2)c1 :: 0
Cc1ccc(O)cc1Nc1ccnc2cc(-c3ccc(CN4CCCCC4)o3)ccc12 :: 12
CN(c1ccc2c(c1)nc(NCc1ccccc1)n2C)c1ccnc(Nc2ccc(CS(C)(=O)=O)cc2)n1.Cl :: 24
Cc1ccc(NC(=O)c2cccc(N3CCCCC3)c2)cc1-c1ccc(C(=O)NCC2CC2)cc1 :: 0
Cn1cc(-c2cnc(N)c3c(-c4ccc5c(c4)CCN5C(=O)Cc4ccccc4)csc23)cn1 :: 55
Cc1ccc(-c2ccc3occ(-c4ccc(S(C)=O)cc4)c3c2)nn1 (stereo not drawn) :: 0

# context switch: different compound, same %Inh
Ask | Return the recorded %Inh value; entry: "Cl.N#CCc1ccc(Nc2nccc(Nc3ccc(Oc4ccccc4)cc3)n2)cc1"
Reply | 17

---

Parameter %Inh: see the listing below.
Test system: ITK
Details: concentration: 1 μM, replicates: in singlicate; n = 1
All answers are understood in %, so give the number only.

Ask | Please respond with reported %Inh (system ITK) for CC(C)NCC(Cc1ccccc1)NC(=O)c1cc(Br)c(-c2ccnc3[nH]ccc23)s1.Cl.Cl (centres unmarked) .
Reply | 3

Ask | Please respond with reported %Inh (system ITK) for "Cc1nn2c(=O)cc(N3CCO[C@H](C)C3)nc2n1Cc1cccc(Cl)c1Cl" .
Reply | 15

Ask | Please respond with reported %Inh (system ITK) for "Cc1ccc(NC(=O)c2ccc(Cl)c(Cl)c2)cc1-c1ccc(C(=O)Nc2ccncc2)cc1" .
Reply | 10

---

Test system: CLK1
Conditions: concentration: 1 μM, replicates: in singlicate; n = 1
Parameter %Inh: see the listing below.
I'd appreciate it if you wrote the number followed by its unit.

Completed entries (count: 3):
Cc1ccc(NC(=O)c2cccc(N3CCCCC3)c2)cc1-c1ccc(C(=O)NCC2CC2)cc1 :: 22%
CCNC(=O)/C=C/c1n[nH]c2cc(Sc3ccccc3C(=O)NC)ccc12 :: 17%
COc1ccc(C)c(Nc2ccnc(Nc3ccc(-c4cnc[nH]4)cc3)n2)c1.Cl :: 18%

Ask | Return the recorded %Inh value; entry: "Nc1ncc(-c2ccc3nccc(-c4ccncc4)c3c2)cc1S(=O)(=O)N1CCCCC1"
Reply | 81%

Ask | Return the recorded %Inh value; entry: "Cc1ccc(NC(=O)c2ccc(Cl)c(Cl)c2)cc1-c1ccc(C(=O)Nc2ccncc2)cc1"
Reply | 39%

Ask | Return the recorded %Inh value; entry: Cl.Cl.NCC(NC(=O)c1cc(-c2cccnc2)c(-c2ccnc3[nH]ccc23)s1)c1ccccc1 (centres unmarked)
Reply | 71%

Ask | Return the recorded %Inh value; entry: "Cl.O=C(Nc1ccc(Oc2ccc3[nH]c(NC(=O)c4ccco4)nc3c2)cc1)Nc1cc(C(F)(F)F)ccc1F"
Reply | 63%

Ask | Return the recorded %Inh value; entry: "Cn1cc(-c2cnc(N)c3c(-c4ccc5c(c4)CCN5C(=O)Cc4ccccc4)csc23)cn1"
Reply | 15%

---

Test system: LTK
Conditions: concentration: 1 μM, replicates: in singlicate; n = 1
reported.endpoint: %Inh (%)
All answers are understood in %, so give the number only.

Completed entries (count: 3):
Cc1ccc(Nc2ccnc(Nc3ccc(C)c(F)c3)n2)cc1O.Cl :: 0
Fc1cc(Cl)ccc1Nc1ccnc2cc(-c3ccc(CN4CCOCC4)o3)ccc12 :: 57
O=C(Nc1c(F)cccc1F)c1cc(C(=O)c2ccccc2F)c[nH]1 :: 0

Ask | Return the recorded %Inh value; entry: "Nc1ncnc2scc(-c3ccc(NC(=O)Cc4cc(F)ccc4F)cc3)c12.O=C(O)C(F)(F)F"
Reply | 71

Ask | Return the recorded %Inh value; entry: "Cc1nn2c(=O)cc(N3CCO[C@H](C)C3)nc2n1Cc1cccc(Cl)c1Cl"
Reply | 27

---

Test system: TLK1
Conditions: concentration: 1 μM, replicates: in singlicate; n = 1
Binarize %Inh at 8%; below is 1 (yes), at or above is 0 (no).

CCn1cnc2c(NCc3ccccc3)ncnc21 :: 1 (yes)
Nc1ncnc2scc(-c3ccc(NC(=O)Cc4cc(F)ccc4F)cc3)c12.O=C(O)C(F)(F)F :: 0 (no)
CN(c1ccc2c(c1)nc(NCc1ccccc1)n2C)c1ccnc(Nc2ccc(CS(C)(=O)=O)cc2)n1.Cl :: 1 (yes)
COc1cccc(NC(=O)NCCNc2ccnc(Nc3ccc(F)cc3)n2)c1 :: 1 (yes)
Cc1cc(-c2ccnc(Nc3cccc(C#N)c3)n2)cc(C)c1O :: 0 (no)
Cc1ccc(NC(=O)c2cccc(N3CCCCC3)c2)cc1-c1ccc(C(=O)NCC2CC2)cc1 :: 1 (yes)

# ---- query molecule ----
Ask | Consider the molecule "CN1CCN(Cc2ccc(NC(=O)Nc3ccc(N(C)c4ccnc(Nc5ccc(CS(C)(=O)=O)cc5)n4)cc3)cc2)CC1.Cl" . Is its %Inh strictly less than 8%?
Reply | 0 (no)

---

Tested on: LIMK1
Conditions: concentration: 1 μM, replicates: in singlicate; n = 1
reported.endpoint: %Inh

Completed entries (count: 5):
CCn1cnc2c(NCc3ccccc3)ncnc21 :: 0%
O=C(Nc1c(F)cccc1F)c1cc(C(=O)c2ccccc2F)c[nH]1 :: 3%
COc1ccc(C)c(Nc2ccnc(Nc3ccc(-c4cnc[nH]4)cc3)n2)c1.Cl :: 31%
N#Cc1cnc2cc(-c3cnc(CNCCN4CCOCC4)s3)ccc2c1Nc1ccc(Oc2ccccc2)cc1 :: 6%
c1ccc(Oc2ccc(Nc3ccnc4cc(-c5ccc(CN6CCCCC6)o5)ccc34)cc2)nc1 :: 0%

Ask | Please respond with reported %Inh (system LIMK1) for "N#CC1(c2cccc(C(=O)Nc3cccc(Oc4ccc5nc(NC(=O)C6CC6)sc5n4)c3)c2)CC1" .
Reply | 6%

Ask | Please respond with reported %Inh (system LIMK1) for "COc1cc(Nc2ccnc3cc(-c4ccncc4)ccc23)cc(OC)c1OC.Cl" .
Reply | 0%

Ask | Please respond with reported %Inh (system LIMK1) for "Cl.O=C(Nc1ccc(Oc2ccc3[nH]c(NC(=O)c4ccco4)nc3c2)cc1)Nc1cc(C(F)(F)F)ccc1F" .
Reply | 17%

Ask | Please respond with reported %Inh (system LIMK1) for "COC(=O)Nc1nc2cc(Oc3ccc(NC(=O)Nc4cccc(SC)c4)cc3)ccc2[nH]1.Cl" .
Reply | 0%
